- system: recombinant human G9a protein (Homo sapiens, UniProt Q96KQ7)
- Construct: purchased BPS Bioscience Inc. #51001
- Sequence (Q96KQ7 785-1210 limits assumed): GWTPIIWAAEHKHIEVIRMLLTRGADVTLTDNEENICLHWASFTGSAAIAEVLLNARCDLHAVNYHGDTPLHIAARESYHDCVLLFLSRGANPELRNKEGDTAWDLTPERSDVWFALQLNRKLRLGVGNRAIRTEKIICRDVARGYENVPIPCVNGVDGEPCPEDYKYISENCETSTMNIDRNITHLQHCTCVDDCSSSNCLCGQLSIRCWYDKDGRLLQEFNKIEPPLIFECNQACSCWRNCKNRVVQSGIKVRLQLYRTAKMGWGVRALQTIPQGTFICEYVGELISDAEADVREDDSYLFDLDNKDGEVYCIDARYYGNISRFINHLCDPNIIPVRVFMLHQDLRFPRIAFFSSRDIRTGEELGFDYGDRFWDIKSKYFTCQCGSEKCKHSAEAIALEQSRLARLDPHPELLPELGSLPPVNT
- measurement protocol: G9a inhibitory activity test (ALPHA)
- Format: biochemical
- cond: biotinylated histone H3 peptide (1-21), SAM, read-out: Inhibitory activity (G9a IC50 value)
Listing of entries alongside the reported IC50.

molecule: CCCCC(NC(=O)c1[nH]c2c(c1C)C(=O)CC(C)(C)C2)C(=O)NCc1ccc(N2CCN(C)CC2)cc1 (centres unmarked) [Example 1-54]
IC50: ≥ 200 nM
//
molecule: CCCCC(NC(=O)c1[nH]c2c(c1C)C(=O)CC(C)(C)C2)C(=O)Nc1cccc2c1OCC2 (centres unmarked) [Example 1-35]
IC50: ≥ 200 nM
//
molecule: CCCCC(NC(=O)c1[nH]c2c(c1C)C(=O)CC(C)(C)C2)C(=O)Nc1ccccc1C(F)(F)F (centres unmarked) [Example 1-27]
IC50: ≥ 200 nM
//
molecule: CCCCC(NC(=O)c1[nH]c2c(c1C)C(=O)CC(C)(C)C2)C(=O)NCc1ccc2ccccc2c1 (centres unmarked) [Example 1-50]
IC50: ≥ 200 nM
//
molecule: CCCCC(NC(=O)c1[nH]c2c(c1C)C(=O)CC(C)(C)C2)C(=O)Nc1cccc2ncccc12 (centres unmarked) [Example 1-14]
IC50: ≥ 200 nM
//
molecule: O=C(NC(CCC1CC1)C(=O)Nc1ccc(O)nc1)c1ccc(Nc2ccncc2)cc1 (centres unmarked) [Example 1-89]
IC50: < 50 nM
//
molecule: O=C(Cc1ccccc1)NC(CCC1CC1)C(=O)Nc1ccc(OC2COC2)nc1 (centres unmarked) [Example 1-87]
IC50: 50 to 200 nM
//
molecule: CCCCNC(=O)C(CCC1CC1)NC(=O)c1[nH]c2c(c1C)C(=O)CC(C)(C)C2 (centres unmarked) [Example 1-82]
IC50: 50 to 200 nM

----------
- system: recombinant human G9a protein (Homo sapiens)
- Construct: purchased BPS Bioscience Inc. #51001
- measurement protocol: G9a inhibitory activity test (ALPHA)
- Assay type: biochemical
- cond: read-out: Inhibitory activity (G9a IC50)

compound: CCCCC(NC(=O)c1[nH]c2c(c1C)C(=O)CC(C)(C)C2)C(=O)Nc1ccc(C(N)=O)cc1 (stereo not shown)
IC50: ≥ 200 nM

compound: Cc1c(C(=O)NC(CCC2CC2)C(=O)N2CCc3cc(OCCN4CCCCC4)ccc32)[nH]c2c1C(=O)CC(C)(C)C2 (stereo not shown)
IC50: 50 to 200 nM

compound: Cc1cc(-n2ccc3cnccc32)ccc1C(=O)NC(CCC1CC1)C(=O)Nc1ccc(C#N)nc1 (stereo not shown)
IC50: 50 to 200 nM

compound: CCCCC(NC(=O)c1[nH]c2c(c1C)C(=O)CC(C)(C)C2)C(=O)NCc1ccc(CN2CCCC2)cc1 (stereo not shown)
IC50: < 50 nM

compound: CCCCC(NC(=O)c1nc(-c2ccccc2)sc1C)C(=O)Nc1ccc(OC2CCN(C)CC2)nc1 (stereo not shown)
IC50: ≥ 200 nM

compound: Cc1c(C(=O)NC(CCC2CC2)C(=O)N2CCc3cc(OCCN(C)C)ccc3C2)[nH]c2c1C(=O)CC(C)(C)C2 (stereo not shown)
IC50: ≥ 200 nM

compound: CCCC[C@H](NC(=O)c1[nH]c2c(c1C)C(=O)CC(C)(C)C2)c1nc2ccc(OC3CCNCC3)cc2[nH]1
IC50: 50 to 200 nM
